# pKd values compiled below
Molecular target: T1, Human GHR-Fc-10x His (extracellular region of human growth hormone receptor fused to human Fc) (human, UniProt P10912 50-256)
T1 construct: Captured by its 10x His-tag on a Ni-NTA sensor chip for SPR; not shown: human Fc domain of vector pAB1200 with its linker; 10x His-tag replacing the AviTag
T1 sequence (looked up): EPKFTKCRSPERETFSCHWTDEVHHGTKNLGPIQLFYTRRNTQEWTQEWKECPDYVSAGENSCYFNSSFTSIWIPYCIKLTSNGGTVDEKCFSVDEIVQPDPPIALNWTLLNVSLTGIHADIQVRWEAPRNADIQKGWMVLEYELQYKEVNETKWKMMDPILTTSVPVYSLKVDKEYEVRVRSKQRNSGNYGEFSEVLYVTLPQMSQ
Experiment: SPR, GHR-Fc-10xHis captured on Ni-NTA chip, Fab as analyte, 1:1 fit
Units for pKd: none; it is -log10 of a concentration expressed in mol/L.

GHR13 Fab (Fab, V domains shown, Fab) VH: EVQLVESGGGLVQPGGSLRLSCAASGFNVYYSSIHWVRQAPGKGLEWVAYIYPSSGSTSYADSVKGRFTISADTSKNTAYLQMNSLRAEDTAVYYCARSWQWYYPGWEQYGWYGMDYWGQGTLVTVSS VL: DIQMTQSPSSLSASVGDRVTITCRASQSVSSAVAWYQQKPGKAPKLLIYSASSLYSGVPSRFSGSRSGTDFTLTISSLQPEDFATYYCQQSGGSLVTFGQGTKVEIKR :: 8.55

Please examine the following record next.
## Input Quick one: give measured pKd for GHR4 Fab (Fab, V domains shown, Fab; also called FAB4) VH: EVQLVESGGGLVQPGGSLRLSCAASGFNVYYSYIHWVRQAPGKGLEWVAYISPYSGSTSYADSVKGRFTISADTSKNTAYLQMNSLRAEDTAVYYCARQEWYAFDYWGQGTLVTVSS VL: DIQMTQSPSSLSASVGDRVTITCRASQSVSSAVAWYQQKPGKAPKLLIYSASSLYSGVPSRFSGSRSGTDFTLTISSLQPEDFATYYCQQYWSYLITFGQGTKVEIKR
## Output 8.72
